cytotoxicity at 70.5 h: recorded values
Method Notes: Human HepG2 cell viability assay in 384 well format
Format: toxicity, cell-based
Parameters: dose 125 nL, time 70.5 hour; concentration not given beside the values
Protocol Conditions: HepG2 cells, read-out: Inhibition

Would you please look over these solved cases?
Compound: CC(=O)NC1CCCN(C(=O)NCc2cccnc2)C1 (centres undefined)
Recorded Result: 0.9%
--
Compound: Cc1ccc2c(c1)CCC2NCc1c(C)nn(C)c1N1CCOCC1 (centres undefined)
Recorded Result: -1.48%
--
Compound: CCSC(C)C(=O)N1CCC(c2nn(C)c(=O)n2-c2ccccc2)CC1 (centres undefined)
Recorded Result: -7.97%
--
Compound: CN1CCO[C@@H]2CN(C(=O)NCc3ccccc3)CC[C@@H]2C1
Recorded Result: 9.51%
--
Compound: O=C(CSC(F)(F)F)N1CCC2(CCCN(C3CCOCC3)C2=O)C1 (centres undefined)
Recorded Result: 15%
--
Compound: NC(=O)N1CC[C@@H]2O[C@@H](COCC(=O)N3CCCC3)CC[C@@H]21
Recorded Result: 24%

Which cytotoxicity at 70.5 h value is on record for O=c1c2ccccc2nc2n1C(CSc1ccc(Cl)cc1Cl)CN2 (centres undefined) ?
29.6%

Field entry: Cc1ccc2cc(C3(O)CCN(C)CC3)ccc2n1
-0.603%
